# Tested on: K-562 leukemia
# Assay protocol: NCI-60 one-dose screen, 48 h
# Condition info: 10 µM unless noted
The panel holds about 83,000 compounds, 20% with a hit somewhere; the sample as a whole holds those more often. Calls of active or inactive are those of the source. Rule for the calls: active = growth percent below 10; inactive = the rest.
Use one of these outcomes when replying: Y for active, N for inactive

COc1cccc(C(=O)NNC(=O)c2cccc3ccccc23)c1: N
CSc1cnc2ccccc2n1: N
CCOC(=O)N[C@H]1CCc2cc(OC)c(OC)c(OC)c2-c2ccc(SC)c(=O)cc21: Y
O=c1[nH]c(=O)c2cc(Cl)cc(Cl)c2[nH]1: N
CC(=O)N(C(C)=O)c1ccc(C)cc1: N
CCC(=O)Oc1c(C)cc(O)c2ccccc12: N

Check the results log: what was the call for Nc1cc(N)ncn1 ? N
